- assayedTarget: T1, MICB005-ECD-HISAvi (human, UniProt Q29980 24-309)
- T1 construct: Two sources under one name in the two kinetic assays; also called MICB005 polypeptide
- T1 sequence: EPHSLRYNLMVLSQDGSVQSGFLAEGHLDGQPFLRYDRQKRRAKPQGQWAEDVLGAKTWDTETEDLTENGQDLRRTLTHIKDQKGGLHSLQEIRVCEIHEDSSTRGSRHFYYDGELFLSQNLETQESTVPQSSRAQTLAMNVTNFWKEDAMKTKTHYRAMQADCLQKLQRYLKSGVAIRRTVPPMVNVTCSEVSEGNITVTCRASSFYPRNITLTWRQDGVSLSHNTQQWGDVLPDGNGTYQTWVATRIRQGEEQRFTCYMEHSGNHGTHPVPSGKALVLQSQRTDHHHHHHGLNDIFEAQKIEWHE
- assayNotes: BLI (GatorPrime); antibody on anti-hIgG Fc probe, monomeric antigen in solution;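 further: binding kinetics of anti-MICA/B antibodies measured by biolayer interferometry, with dissociation followed for about 10 min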
pKd: −log10 of the molar value.
observationType: pKd

binder="13A9 (antibody, human IgG1, kappa, V domains shown) VH: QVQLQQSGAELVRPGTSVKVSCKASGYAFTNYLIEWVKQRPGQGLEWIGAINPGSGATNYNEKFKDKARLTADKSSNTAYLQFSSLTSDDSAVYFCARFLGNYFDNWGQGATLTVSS VL: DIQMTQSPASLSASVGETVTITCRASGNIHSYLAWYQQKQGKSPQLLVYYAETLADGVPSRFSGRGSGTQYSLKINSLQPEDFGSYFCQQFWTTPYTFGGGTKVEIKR" endpointresult=9.37
